# target-under-test: Free fatty acid receptor 1 (Homo sapiens)
# Sequence (O14842 whole entry): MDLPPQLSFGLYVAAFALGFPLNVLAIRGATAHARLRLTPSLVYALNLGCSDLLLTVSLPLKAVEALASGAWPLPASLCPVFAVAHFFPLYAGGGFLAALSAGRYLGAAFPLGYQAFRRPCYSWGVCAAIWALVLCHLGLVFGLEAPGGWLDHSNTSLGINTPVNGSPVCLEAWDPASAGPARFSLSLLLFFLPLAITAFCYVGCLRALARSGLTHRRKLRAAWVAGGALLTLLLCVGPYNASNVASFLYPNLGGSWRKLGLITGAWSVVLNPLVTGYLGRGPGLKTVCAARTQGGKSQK
# experiment-description: Agonist activity at human FFA1 transfected in 1321N1 cells under serum-free condition after 1 hr by dose response curve/dynamic mass redistribution optical biosensor assay
# Assay type: functional, cell-based
reported-property: EC50 (nM)
Numbers only, in nM.

Cc1ccccc1-c1cccc(COc2ccc(CCC(=O)O)cc2)c1 263
O=C(O)CCc1ccc(OCc2ccccc2)cc1 832

The record that follows has no EC50 shown yet.
Input: Identify the measured EC50 of `O=C(O)CCc1ccc(NCc2cccc(Oc3ccccc3)c2)cc1` for Free fatty acid receptor 1 (Homo sapiens).
Output: 87.1

----------
# Species: Homo sapiens
# experiment-description: Selectivity for human FFA1 over human PPARgamma
reported-property: fold change (FC)

Would you please look over these solved cases?
N#Cc1cccc(COc2ccc(CCC(=O)O)cc2)c1 > 100
O=C(O)CCc1ccc(OCc2cccc(-c3ccccc3)c2)cc1 > 100

// each compound listed below needs its fold change (FC)
1. O=C(O)CCc1ccc(CNc2ccccc2)cc1
2. Cc1ccc(-c2cccc(COc3ccc(CCC(=O)O)cc3)c2)cc1
3. COc1ccccc1-c1cccc(COc2ccc(CCC(=O)O)cc2)c1
4. O=C(O)CCc1ccc(OCc2ccccc2)c(I)c1
5. O=C(O)CCc1ccc(NCc2ccc(-c3ccccc3)cc2)cc1
6. O=C(O)CCc1ccc(OCc2ccc(Oc3ccccc3)cc2)cc1
7. O=C(O)CCc1ccc(NCc2cccc(-c3ccccc3)c2)cc1

Output:
["> 100", "> 100", "> 100", "> 100", "> 100", "> 100", "> 100"]

// each compound listed below needs its fold change (FC)
1. O=C(O)CCc1ccc(OCc2cccc(Oc3ccccc3)c2)cc1
2. O=C(O)CCc1ccc(OCc2cccc(C(F)(F)F)c2)cc1
3. O=C(O)CCc1ccc(C#Cc2ccccc2)cc1

Output:
> 100
> 100
> 100

----------
# target-under-test: Free fatty acid receptor 1 (Homo sapiens)
# experiment-description: Agonist activity at human FFA1 transfected in 1321N1 cells assessed as calcium mobilization by microplate assay
# Assay type: functional, cell-based
Cut-off 400 nM on EC50: below means Fulfilled, at or above means Not fulfilled.

Examples from the recorded data:
compound	class-label
O=C(O)CCc1ccc(OCc2cccc(Oc3ccccc3)c2)cc1	Fulfilled
O=C(O)CCc1ccc(OCc2cccc(-c3ccccc3)c2)cc1	Fulfilled

Input: Quick check: does `O=C(O)CCc1ccc(OCc2cccc(Br)c2)cc1` have EC50 under 400 nM?
Output: Fulfilled

Input: Quick check: does `O=C(O)CCc1ccc(COc2ccccc2)cc1` have EC50 under 400 nM?
Output: Not fulfilled

Input: Quick check: does `O=C(O)CCc1ccc(NCc2cccc(Br)c2)cc1` have EC50 under 400 nM?
Output: Fulfilled

----------
I'd appreciate it if you could supply fold change (FC) values for the items below.
# Organism: Homo sapiens
# experiment-description: Selectivity for human FFA1 over human PPARgamma

Would you please look over these solved cases?
molecule	fold change (FC)
O=C(O)CCc1ccc(NCc2ccc(Oc3ccccc3)cc2)cc1	> 100
CC(Oc1ccc(CCC(=O)O)cc1)c1ccccc1 (configuration not stated)	> 100

// each molecule listed below needs its fold change (FC)
1. O=C(O)CCc1ccc(OCc2ccccc2-c2ccccc2)cc1
2. Cc1ccc(-c2cccc(CNc3ccc(CCC(=O)O)cc3)c2)cc1
3. Cc1ccccc1-c1cccc(CNc2ccc(CCC(=O)O)cc2)c1

Output:
> 100
> 100
> 100

// each molecule listed below needs its fold change (FC)
1. O=C(O)CCc1ccc(OCc2ccccc2Br)cc1
2. O=C(O)CCc1ccc(NCc2cccc(C(F)(F)F)c2)cc1
3. O=C(O)CCc1ccc2oc(-c3ccccc3)cc2c1
4. O=C(O)CCc1ccc(OCc2cccc(Br)c2)cc1
5. Cc1ccccc1-c1cccc(COc2ccc(CCC(=O)O)cc2)c1
6. O=C(O)CCc1ccc(OCc2ccc(-c3ccccc3)cc2)cc1
7. O=C(O)CCc1ccc(OCc2ccc(Br)cc2)cc1

Output:
1. > 100
2. > 100
3. > 100
4. > 100
5. > 100
6. > 100
7. > 100
